biological target: SARS-CoV-2 Papain-like (PLpro) protease (Severe acute respiratory syndrome coronavirus 2); experiment: SARS-CoV-2 Papain-like (PLpro) protease biochemical enzyme inhibition assay (ubiquitin-fluorophore substrate, Ub-R110)
pIC50: −log10 of the molar value.
endpoint-label: pIC50

C[Si](C)(C)C#CCNC(=O)C(=O)NCc1ccccc1C(=O)NC1(c2ccc3ccccc3c2)CC1; < 5.00

Input: # lookup: pIC50 of "CCOP(=O)(/C=C/CCNC(=O)C(=O)NCc1ccccc1C(=O)N[C@H](C)c1cccc2ccccc12)OCC"
Output: < 5.00

----------
target: UniProt P0DTD1; experiment: SARS-CoV-2 Papain-like (PLpro) protease biochemical enzyme inhibition assay (ubiquitin-fluorophore substrate, Ub-R110); conditions: Ub-R110 substrate; run in duplicate; read-out: PLpro IC50
endpoint-label: IC50

N#CCNC(=O)C(=O)NCc1ccccc1C(=O)NC1(c2cc(C(F)(F)F)cc(C(F)(F)F)c2)CC1; 1000 to 10000 nM
O=C(NCC#Cc1ncco1)C(=O)NCc1ccccc1C(=O)NC1(c2ccc3ccccc3c2)CC1; < 100 nM
O=C(NC/C=C/c1ccccn1)C(=O)NCc1ccccc1C(=O)NC1(c2ccc3ccccc3c2)CC1; 100 to 1000 nM
C=CCNC(=O)C(=O)NCc1ccccc1C(=O)NC1(c2ccc3ccccc3c2)CC1; > 10000 nM
N#CCNC(=O)C(=O)NCc1ccccc1C(=O)NC1(c2cc(F)cc(-c3cnn(C4CC4)c3)c2F)CC1; < 100 nM
N#CCNC(=O)C(=O)NCc1ccccc1C(=O)NC1(c2cn(-c3cnn(C4CC4)c3)c3ncccc23)CC1; < 100 nM

Input: # lookup: IC50 of "O=C(C#CCNC(=O)C(=O)NCc1ccccc1C(=O)NC1(c2cc(-c3cnn(C4CC4)c3)cc(C(F)(F)F)c2)CC1)NC1CC1"
Output: 100 to 1000 nM

----------
molecular target: SARS-CoV-2 Papain-like (PLpro) protease (Severe acute respiratory syndrome coronavirus 2); experiment: SARS-CoV-2 Papain-like (PLpro) protease biochemical enzyme inhibition assay (ubiquitin-fluorophore substrate, Ub-R110); conditions: Ub-R110 substrate; run in duplicate; read-out: PLpro IC50
pIC50: −log10 of the molar value.
# pIC50 per record follows

Before answering, review these 3 worked examples.
NC(=O)C(=O)NCc1ccccc1C(=O)NC1(c2cc(-c3cnn(C4CC4)c3)cc3ccccc23)CC1; > 7.00
C#CCNC(=O)C(=O)NCc1ccccc1C(=O)NC1(c2cccc3c2ccn3C)CC1; 6.00 to 7.00
C#C[C@H](C)NC(=O)C(=O)NCc1ccccc1C(=O)NC1(c2ccc3ccccc3c2)CC1; 5.00 to 6.00

Input: # lookup: pIC50 of "Cc1nn(C2CC2)c(C)c1-c1cc(F)cc(C2(NC(=O)c3ccccc3CNC(=O)C(=O)NCC#Cc3nccs3)CC2)c1"
Output: > 7.00

Input: # lookup: pIC50 of "Cc1nn(C2CC2)c(C)c1-c1cc(Cl)cc(C2(NC(=O)c3ccccc3CNC(=O)C(=O)NCC#Cc3nccs3)CC2)c1"
Output: > 7.00

Input: # lookup: pIC50 of "N#CCNC(=O)C(=O)NCc1ccccc1C(=O)NC1(c2cccc(Br)c2)CC1"
Output: 6.00 to 7.00

Input: # lookup: pIC50 of "C[C@@H](C#Cc1nccs1)NC(=O)C(=O)NCc1ccccc1C(=O)NC1(c2ccc3c(cnn3C)c2)CC1"
Output: > 7.00

Input: # lookup: pIC50 of "C#C[C@H](C)NC(=O)C(=O)NCc1ccccc1C(=O)NC1(c2cc(F)cc(-c3cnn(C4CC4)c3)c2)CC1"
Output: 6.00 to 7.00

Input: # lookup: pIC50 of "O=C(NCC#Cc1nccs1)C(=O)NCc1ccccc1C(=O)NC1(c2cc(F)cc(-n3cc(C4CC4)cn3)c2)CC1"
Output: > 7.00

----------
# pIC50 per record follows
target: SARS-CoV-2 Papain-like (PLpro) protease (Severe acute respiratory syndrome coronavirus 2); assay: SARS-CoV-2 Papain-like (PLpro) protease biochemical enzyme inhibition assay (ubiquitin-fluorophore substrate, Ub-R110); conditions: Ub-R110 substrate; run in duplicate; read-out: PLpro IC50
pIC50: −log10 of the molar value.

Before answering, review these 10 worked examples.
Cc1nn(C)c(C)c1-c1cc(C2(NC(=O)c3ccccc3CNC(=O)C(=O)N[C@@H](C)C#Cc3nccs3)CC2)cc2ccccc12; > 7.00
COc1cccnc1C#CCNC(=O)C(=O)NCc1ccccc1C(=O)NC1(c2cc(F)cc(-c3cnn(C4CC4)c3)c2)CC1; > 7.00
C#CCNC(=O)C(=O)NCc1ccccc1C(=O)NC1(c2ccc3c4c(cccc24)CC3)CC1; > 7.00
N#CCNC(=O)C(=O)NCc1ccccc1C(=O)NC1(c2ccc(-c3ccc(F)cc3)cc2)CC1; < 5.00
N#CCNC(=O)C(=O)NCc1ccccc1C(=O)NC1(c2cc(Cl)cc(-c3cnc(C4CC4)nc3)c2)CC1; > 7.00
N#CC1(NC(=O)/C=C/CNC(=O)C(=O)NCc2ccccc2C(=O)NC2(c3cccc4ccccc34)CC2)CC1; 6.00 to 7.00
C[C@@H](C#Cc1nccs1)NC(=O)C(=O)NCc1ccccc1C(=O)NC1(c2cc(Cl)c3nn(C4CC4)cc3c2)CC1; > 7.00
Cn1ccc(C#CCNC(=O)C(=O)NCc2ccccc2C(=O)NC2(c3ccc4ccccc4c3)CC2)n1; 6.00 to 7.00
N#CCNC(=O)C(=O)NCc1ccccc1C(=O)NC1(c2ccc(F)c(-c3cccs3)c2)CC1; > 7.00
C#CCNC(=O)C(=O)NCc1ccc(C(=O)N2CC(F)(F)C2)cc1C(=O)NC1(c2ccc(F)c3ccccc23)CC1; > 7.00

Input: # lookup: pIC50 of "C[C@@H](C#Cc1ncccc1OCC(F)F)NC(=O)C(=O)NCc1ccccc1C(=O)NC1(c2ccc3nn(C)cc3c2)CC1"
Output: 6.00 to 7.00

Input: # lookup: pIC50 of "N#CCNC(=O)C(=O)NCc1ccccc1C(=O)NC1(c2cc(C#N)cc(-c3cccs3)c2)CC1"
Output: > 7.00

Input: # lookup: pIC50 of "N#CCNC(=O)C(=O)NCc1ccccc1C(=O)NC1(c2cccc(Cl)c2Cl)CC1"
Output: 6.00 to 7.00

Input: # lookup: pIC50 of "N#C/C=C/CCNC(=O)C(=O)NCc1ccccc1C(=O)NC1(c2ccc3c4c(cccc24)CC3)CC1"
Output: 6.00 to 7.00

Input: # lookup: pIC50 of "Cc1nn(C)c(C)c1-c1cc(F)cc(C2(NC(=O)c3ccccc3CNC(=O)C(=O)NCC#Cc3nccs3)CC2)c1F"
Output: > 7.00

----------
test system: SARS-CoV-2 replicon; assay: microbe, parasite or virus in culture; format: cell-based; conditions: Severe acute respiratory syndrome coronavirus 2, Huh-7
pEC50: −log10 of the molar value.
# pEC50 per record follows

N#CCNC(=O)C(=O)NCc1ccccc1C(=O)NC1(c2cc(Cl)cc(-c3cnc(C4CC4)nc3)c2)CC1; 5.00 to 6.00
C#CCNC(=O)C(=O)NCc1ccccc1C(=O)NC1(c2cc(-c3cnn(C4CC4)c3)cc(C(F)(F)F)c2)CC1; > 6.00
COc1cccnc1C#CCNC(=O)C(=O)NCc1ccccc1C(=O)NC1(c2cc(F)cc(-c3cn(C)nc3C)c2)CC1; > 6.00
N#CN1CC(C(=O)NCc2ccccc2C(=O)NC2(c3cccc4ccccc34)CC2)C1; > 6.00
N#CCNC(=O)C(=O)NCc1ccccc1C(=O)NC1(c2cccc3c(Br)cccc23)CC1; > 6.00
N#CN1CC[C@H]1CNC(=O)C(=O)NCc1ccccc1C(=O)NC1(c2cccc3ccccc23)CC1; > 6.00

Input: # lookup: pEC50 of "O=C(NCC#Cc1ncco1)C(=O)NCc1ccccc1C(=O)NC1(c2ccc3ccccc3c2)CC1"
Output: > 6.00

----------
biological target: UniProtKB P0DTD1; test: SARS-CoV-2 Papain-like (PLpro) protease biochemical enzyme inhibition assay (ubiquitin-fluorophore substrate, Ub-R110); conditions: Ub-R110 substrate; run in duplicate; read-out: PLpro IC50
# IC50 per record follows

Before answering, review these 6 worked examples.
Cc1cnn(C)c1-c1cc(C(F)(F)F)cc(C2(NC(=O)c3ccccc3CNC(=O)C(=O)NCC#N)CC2)c1; 100 to 1000 nM
N#CCNC(=O)C(=O)NCc1ccccc1C(=O)NC1(c2cc(N3CCOC3=O)cc3ccccc23)CC1; < 100 nM
CC#CC(=O)NNC(=O)C(=O)NCc1ccccc1C(=O)N[C@H](C)c1cccc2ccccc12; > 10000 nM
N#CCNC(=O)C(=O)NCc1ccccc1C(=O)NC1(c2cc(-c3cccs3)cc3ccccc23)CC1; < 100 nM
C[C@@H](C#Cc1ncccc1Cl)NC(=O)C(=O)NCc1ccccc1C(=O)NC1(c2cc(F)cc(-c3cnn(CC(C)(C)O)c3)c2)CC1; < 100 nM
C#CCNC(=O)C(=O)NCc1ccccc1C(=O)NC1(c2ccc(OC)c(-c3cnn(C4CC4)c3)c2)CC1; < 100 nM

Please find the next compound below.
Input: # lookup: IC50 of "O=C(NCC#Cc1nccs1)C(=O)NCc1ccccc1C(=O)NC1(c2cc(F)cc(C(=O)N3CCOCC3)c2)CC1"
Output: < 100 nM

The values you see were collected from patent US20240327334A1.
